solubility listing for selected compounds.
# Assay Notes: Solubility in DMSO at pH 6.8 by high-throughput solubility assay
# Format: physicochemical

Line Notation: Cc1cc(Nc2nc(Nc3ccccc3S(=O)(=O)C(C)C)c3cn[nH]c3n2)c(OC(C)C)cc1C1CCN(C)CC1
Value Qualifier: >
solubility, µM: 175
//
Line Notation: Cc1cc(Nc2nc(Nc3ccccc3S(=O)(=O)C(C)C)c3cc[nH]c3n2)c(OC(C)C)cc1C1CCN(C)CC1
Value Qualifier: =
solubility, µM: 10.4
//
Line Notation: Cc1cc(Nc2nc(Nc3ccccc3S(=O)(=O)C(C)C)c3c(C)[nH]nc3n2)c(OC(C)C)cc1C1CCN(C)CC1
Value Qualifier: =
solubility, µM: 114
//
Line Notation: Cc1cc(Nc2nc(Nc3ccccc3S(=O)(=O)C(C)C)c3cc[nH]c3n2)c(OC(C)C)cc1C1CCNCC1
Value Qualifier: =
solubility, µM: 8.1

----------
# Test System: Tyrosine-protein kinase JAK3 (Homo sapiens)
pIC50: −log10 of the molar value.
Property Label: pIC50

Line Notation: Cc1cc(Nc2nc(Nc3ccccc3S(=O)(=O)C(C)C)c3c(C)[nH]nc3n2)c(OC(C)C)cc1C1CCN(C)CC1
Reported: < 5.00

----------
# Test System: EML4-ALK (Homo sapiens)
# Sequence (Q9UM73 whole entry): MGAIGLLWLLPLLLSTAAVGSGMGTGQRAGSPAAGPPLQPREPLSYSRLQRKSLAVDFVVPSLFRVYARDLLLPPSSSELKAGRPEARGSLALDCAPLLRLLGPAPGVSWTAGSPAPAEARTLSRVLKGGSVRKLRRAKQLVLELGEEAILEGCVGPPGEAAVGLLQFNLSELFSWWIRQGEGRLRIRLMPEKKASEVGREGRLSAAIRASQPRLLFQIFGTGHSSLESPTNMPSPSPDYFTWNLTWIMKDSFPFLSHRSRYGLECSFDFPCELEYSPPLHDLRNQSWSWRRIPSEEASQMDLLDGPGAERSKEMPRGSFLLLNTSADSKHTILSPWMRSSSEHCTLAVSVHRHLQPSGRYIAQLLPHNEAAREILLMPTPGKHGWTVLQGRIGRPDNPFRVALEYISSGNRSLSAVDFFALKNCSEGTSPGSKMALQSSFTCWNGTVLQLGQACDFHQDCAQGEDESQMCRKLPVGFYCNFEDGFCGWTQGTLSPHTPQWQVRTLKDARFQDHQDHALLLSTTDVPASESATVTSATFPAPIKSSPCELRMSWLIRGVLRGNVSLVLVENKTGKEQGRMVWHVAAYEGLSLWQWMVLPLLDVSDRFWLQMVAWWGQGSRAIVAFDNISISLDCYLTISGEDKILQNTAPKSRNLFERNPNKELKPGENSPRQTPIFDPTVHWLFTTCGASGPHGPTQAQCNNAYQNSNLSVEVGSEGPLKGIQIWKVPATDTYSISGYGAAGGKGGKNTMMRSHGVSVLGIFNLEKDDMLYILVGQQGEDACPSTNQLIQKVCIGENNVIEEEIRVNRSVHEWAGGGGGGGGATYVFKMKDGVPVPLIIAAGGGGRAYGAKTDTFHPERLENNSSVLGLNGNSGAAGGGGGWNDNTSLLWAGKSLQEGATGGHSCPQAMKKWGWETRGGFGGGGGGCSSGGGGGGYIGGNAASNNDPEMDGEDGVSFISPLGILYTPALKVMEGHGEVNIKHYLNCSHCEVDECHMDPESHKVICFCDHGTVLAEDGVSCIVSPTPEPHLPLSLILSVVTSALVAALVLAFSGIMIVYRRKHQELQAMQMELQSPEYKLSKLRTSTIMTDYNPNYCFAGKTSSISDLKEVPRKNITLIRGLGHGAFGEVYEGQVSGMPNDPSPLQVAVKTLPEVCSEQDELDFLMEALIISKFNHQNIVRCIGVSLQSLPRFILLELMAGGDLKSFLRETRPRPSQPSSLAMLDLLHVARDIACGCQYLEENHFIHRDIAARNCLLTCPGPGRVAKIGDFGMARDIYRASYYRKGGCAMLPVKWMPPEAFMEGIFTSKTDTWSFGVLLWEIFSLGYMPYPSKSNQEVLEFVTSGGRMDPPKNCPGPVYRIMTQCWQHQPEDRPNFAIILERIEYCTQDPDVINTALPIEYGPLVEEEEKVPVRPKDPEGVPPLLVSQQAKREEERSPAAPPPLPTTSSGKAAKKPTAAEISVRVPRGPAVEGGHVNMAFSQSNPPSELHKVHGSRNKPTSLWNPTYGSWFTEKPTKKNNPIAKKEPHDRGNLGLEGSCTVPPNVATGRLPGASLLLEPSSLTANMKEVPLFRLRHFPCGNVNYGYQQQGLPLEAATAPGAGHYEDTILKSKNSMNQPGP
# Sequence (Q9HC35 whole entry, further chain): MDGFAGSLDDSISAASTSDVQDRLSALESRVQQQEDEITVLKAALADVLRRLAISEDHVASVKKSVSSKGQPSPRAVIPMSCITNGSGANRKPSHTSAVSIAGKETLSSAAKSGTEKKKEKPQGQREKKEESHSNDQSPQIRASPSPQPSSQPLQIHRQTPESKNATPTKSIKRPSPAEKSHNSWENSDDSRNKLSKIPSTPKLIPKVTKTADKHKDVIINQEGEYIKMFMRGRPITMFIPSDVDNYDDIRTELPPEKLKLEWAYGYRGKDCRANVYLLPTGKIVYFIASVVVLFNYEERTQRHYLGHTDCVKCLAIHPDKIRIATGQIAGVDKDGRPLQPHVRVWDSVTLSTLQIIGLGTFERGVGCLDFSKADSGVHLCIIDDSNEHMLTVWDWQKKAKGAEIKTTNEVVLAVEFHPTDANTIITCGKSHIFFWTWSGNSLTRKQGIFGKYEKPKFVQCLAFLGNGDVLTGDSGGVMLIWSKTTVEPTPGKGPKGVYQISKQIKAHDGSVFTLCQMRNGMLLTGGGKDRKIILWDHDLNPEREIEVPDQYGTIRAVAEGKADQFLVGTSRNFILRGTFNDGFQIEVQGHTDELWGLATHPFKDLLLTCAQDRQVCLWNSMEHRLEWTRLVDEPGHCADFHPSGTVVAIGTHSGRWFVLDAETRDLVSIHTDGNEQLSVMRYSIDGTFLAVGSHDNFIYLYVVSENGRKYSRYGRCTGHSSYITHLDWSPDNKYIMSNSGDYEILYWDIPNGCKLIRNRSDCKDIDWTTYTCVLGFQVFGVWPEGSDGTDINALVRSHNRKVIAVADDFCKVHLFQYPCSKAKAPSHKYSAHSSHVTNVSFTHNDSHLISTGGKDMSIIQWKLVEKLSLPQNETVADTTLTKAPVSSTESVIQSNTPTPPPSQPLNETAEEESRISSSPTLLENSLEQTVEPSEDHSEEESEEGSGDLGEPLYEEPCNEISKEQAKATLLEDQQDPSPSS
pIC50: −log10 of the molar value.

Line Notation: Cc1cc(Nc2nc(Nc3ccccc3S(=O)(=O)C(C)C)c3c(C)[nH]nc3n2)c(OC(C)C)cc1C1CCN(C)CC1
pIC50: 8.00

----------
# Test System: Vascular endothelial growth factor receptor 2 (Homo sapiens)

Line Notation: Cc1cc(Nc2nc(Nc3ccccc3S(=O)(=O)C(C)C)c3c(C)[nH]nc3n2)c(OC(C)C)cc1C1CCN(C)CC1
IC50 [µM]: 7.4

----------
# Test System: Voltage-gated inwardly rectifying potassium channel KCNH2 (Homo sapiens)
# Sequence (Q12809 whole entry): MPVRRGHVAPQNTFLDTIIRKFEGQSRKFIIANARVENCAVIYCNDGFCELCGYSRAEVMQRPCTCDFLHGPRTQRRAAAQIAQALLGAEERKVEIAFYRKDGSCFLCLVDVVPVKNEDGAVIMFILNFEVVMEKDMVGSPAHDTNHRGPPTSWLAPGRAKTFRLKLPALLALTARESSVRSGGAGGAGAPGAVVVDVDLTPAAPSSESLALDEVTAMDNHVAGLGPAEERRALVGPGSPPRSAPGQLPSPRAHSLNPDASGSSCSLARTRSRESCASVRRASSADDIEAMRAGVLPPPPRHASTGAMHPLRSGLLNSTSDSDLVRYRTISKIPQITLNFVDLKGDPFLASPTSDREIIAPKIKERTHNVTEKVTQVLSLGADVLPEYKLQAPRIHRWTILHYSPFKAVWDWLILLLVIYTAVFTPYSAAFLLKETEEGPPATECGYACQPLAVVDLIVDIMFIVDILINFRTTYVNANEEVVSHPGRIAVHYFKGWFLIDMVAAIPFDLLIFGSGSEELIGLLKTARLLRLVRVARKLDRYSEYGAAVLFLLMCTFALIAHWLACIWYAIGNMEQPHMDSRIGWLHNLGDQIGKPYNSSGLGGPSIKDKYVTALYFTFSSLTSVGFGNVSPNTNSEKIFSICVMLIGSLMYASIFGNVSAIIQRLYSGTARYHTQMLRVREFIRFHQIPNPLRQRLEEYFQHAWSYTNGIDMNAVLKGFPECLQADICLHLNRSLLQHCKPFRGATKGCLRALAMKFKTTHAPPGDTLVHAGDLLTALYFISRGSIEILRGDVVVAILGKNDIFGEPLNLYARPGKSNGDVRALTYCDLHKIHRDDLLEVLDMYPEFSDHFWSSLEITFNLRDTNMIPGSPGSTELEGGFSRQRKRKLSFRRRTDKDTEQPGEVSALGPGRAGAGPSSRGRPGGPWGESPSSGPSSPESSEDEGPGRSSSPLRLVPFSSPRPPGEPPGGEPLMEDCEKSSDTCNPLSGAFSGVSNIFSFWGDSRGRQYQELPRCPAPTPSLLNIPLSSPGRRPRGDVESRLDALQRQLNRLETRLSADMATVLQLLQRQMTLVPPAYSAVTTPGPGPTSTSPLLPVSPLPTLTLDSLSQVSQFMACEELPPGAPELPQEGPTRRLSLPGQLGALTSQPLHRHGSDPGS
# Assay Notes: Inhibition of human ERG by dofetilide binding assay
pIC50: −log10 of the molar value.
Each entry below carries its recorded pIC50.

Line Notation: Cc1cc(Nc2nc(Nc3ccccc3S(=O)(=O)C(C)C)c3cn[nH]c3n2)c(OC(C)C)cc1C1CCN(C)CC1
pIC50: 6.00
--
Line Notation: Cc1cc(Nc2nc(Nc3ccccc3S(=O)(=O)C(C)C)c3c(C)[nH]nc3n2)c(OC(C)C)cc1C1CCN(C)CC1
pIC50: 4.68
--
Line Notation: Cc1cc(Nc2nc(Nc3ccccc3S(=O)(=O)C(C)C)c3cc[nH]c3n2)c(OC(C)C)cc1C1CCN(C)CC1
pIC50: 5.77

----------
Recorded microsomal CLint for the following compounds
# Assay Notes: Metabolic stability in human liver microsomes assessed as intrinsic clearance
# Type: ADME, Microsome
# Settings: read-out: CLH

Line Notation: Cc1cc(Nc2nc(Nc3ccccc3S(=O)(=O)C(C)C)c3cc[nH]c3n2)c(OC(C)C)cc1C1CCNCC1
microsomal CLint (µL/min/mg): 22

Line Notation: Cc1cc(Nc2nc(Nc3ccccc3S(=O)(=O)C(C)C)c3c(C)[nH]nc3n2)c(OC(C)C)cc1C1CCN(C)CC1
microsomal CLint (µL/min/mg): 19

Line Notation: Cc1cc(Nc2nc(Nc3ccccc3S(=O)(=O)C(C)C)c3cc[nH]c3n2)c(OC(C)C)cc1C1CCN(C)CC1
microsomal CLint (µL/min/mg): 25

Line Notation: Cc1cc(Nc2nc(Nc3ccccc3S(=O)(=O)C(C)C)c3cn[nH]c3n2)c(OC(C)C)cc1C1CCN(C)CC1
microsomal CLint (µL/min/mg): 32

----------
# Test System: UniProtKB P54760
# Sequence (P54760 whole entry): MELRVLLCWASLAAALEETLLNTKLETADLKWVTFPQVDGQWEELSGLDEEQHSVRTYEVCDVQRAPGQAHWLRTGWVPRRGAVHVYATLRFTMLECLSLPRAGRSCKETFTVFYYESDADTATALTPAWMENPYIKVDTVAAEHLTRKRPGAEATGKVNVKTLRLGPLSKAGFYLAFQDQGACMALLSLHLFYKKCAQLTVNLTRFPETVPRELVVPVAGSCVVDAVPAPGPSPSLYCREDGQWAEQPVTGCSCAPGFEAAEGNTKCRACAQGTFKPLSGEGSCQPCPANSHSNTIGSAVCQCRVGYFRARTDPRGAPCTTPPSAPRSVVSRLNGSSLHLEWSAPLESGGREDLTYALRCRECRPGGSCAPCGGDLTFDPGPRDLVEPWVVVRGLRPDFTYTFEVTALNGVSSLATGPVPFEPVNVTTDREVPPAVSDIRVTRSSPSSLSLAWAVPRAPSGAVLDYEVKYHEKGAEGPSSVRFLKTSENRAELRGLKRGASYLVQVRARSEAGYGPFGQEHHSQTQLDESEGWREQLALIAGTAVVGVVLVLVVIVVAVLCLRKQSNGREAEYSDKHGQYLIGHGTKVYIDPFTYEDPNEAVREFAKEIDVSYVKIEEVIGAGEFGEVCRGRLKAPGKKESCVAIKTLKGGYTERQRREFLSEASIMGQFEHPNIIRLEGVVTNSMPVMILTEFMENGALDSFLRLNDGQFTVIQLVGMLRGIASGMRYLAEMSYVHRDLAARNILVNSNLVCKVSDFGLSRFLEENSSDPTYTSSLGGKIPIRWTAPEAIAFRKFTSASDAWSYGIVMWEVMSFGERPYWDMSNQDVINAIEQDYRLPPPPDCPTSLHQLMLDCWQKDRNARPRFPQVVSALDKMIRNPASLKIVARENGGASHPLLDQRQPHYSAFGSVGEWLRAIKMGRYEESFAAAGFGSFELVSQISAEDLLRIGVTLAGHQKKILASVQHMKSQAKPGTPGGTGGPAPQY
pIC50: −log10 of the molar value.
Property Label: pIC50

Line Notation: Cc1cc(Nc2nc(Nc3ccccc3S(=O)(=O)C(C)C)c3c(C)[nH]nc3n2)c(OC(C)C)cc1C1CCN(C)CC1
Reported: 5.54

----------
# Assay Notes: AUC in mouse at 20 mg/kg, po
# Format: ADME, organism-based
# Parameters: dose 20 mg/kg
# Settings: in vivo

Line Notation: Cc1cc(Nc2nc(Nc3ccccc3S(=O)(=O)C(C)C)c3cc[nH]c3n2)c(OC(C)C)cc1C1CCNCC1
AUC, µM·h: 0.406
//
Line Notation: Cc1cc(Nc2nc(Nc3ccccc3S(=O)(=O)C(C)C)c3c(C)[nH]nc3n2)c(OC(C)C)cc1C1CCN(C)CC1
AUC, µM·h: 4.9
//
Line Notation: Cc1cc(Nc2nc(Nc3ccccc3S(=O)(=O)C(C)C)c3cc[nH]c3n2)c(OC(C)C)cc1C1CCN(C)CC1
AUC, µM·h: 5.98

----------
Cytochrome P450 3A4 (Homo sapiens, UniProt P08684) measurements of IC50, listed per entry.
Sequence (P08684 whole entry): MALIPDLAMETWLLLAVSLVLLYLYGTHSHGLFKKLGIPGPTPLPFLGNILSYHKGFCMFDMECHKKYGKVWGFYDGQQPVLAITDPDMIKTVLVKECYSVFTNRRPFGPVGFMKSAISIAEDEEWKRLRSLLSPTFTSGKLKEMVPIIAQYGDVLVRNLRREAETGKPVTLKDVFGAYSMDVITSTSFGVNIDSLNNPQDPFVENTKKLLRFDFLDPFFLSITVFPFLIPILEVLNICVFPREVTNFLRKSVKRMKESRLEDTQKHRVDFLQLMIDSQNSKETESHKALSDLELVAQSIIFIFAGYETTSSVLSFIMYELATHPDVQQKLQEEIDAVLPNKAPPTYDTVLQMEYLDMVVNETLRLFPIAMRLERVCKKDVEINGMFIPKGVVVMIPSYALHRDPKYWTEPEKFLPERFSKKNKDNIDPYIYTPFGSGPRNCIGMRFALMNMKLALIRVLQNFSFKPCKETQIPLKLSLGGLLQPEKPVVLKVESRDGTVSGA

Line Notation: Cc1cc(Nc2nc(Nc3ccccc3S(=O)(=O)C(C)C)c3cc[nH]c3n2)c(OC(C)C)cc1C1CCNCC1
Value Qualifier: =
IC50, µM: 4.6
--
Line Notation: Cc1cc(Nc2nc(Nc3ccccc3S(=O)(=O)C(C)C)c3cn[nH]c3n2)c(OC(C)C)cc1C1CCN(C)CC1
Value Qualifier: =
IC50, µM: 3.3
--
Line Notation: Cc1cc(Nc2nc(Nc3ccccc3S(=O)(=O)C(C)C)c3c(C)[nH]nc3n2)c(OC(C)C)cc1C1CCN(C)CC1
Value Qualifier: >
IC50, µM: 25

----------
# Assay Notes: Oral bioavailability in rat at 10 mg/kg
# Assay type: ADME, organism-based
# Settings: in vivo

Line Notation: Cc1cc(Nc2nc(Nc3ccccc3S(=O)(=O)C(C)C)c3c(C)[nH]nc3n2)c(OC(C)C)cc1C1CCN(C)CC1
bioavailability [%]: 35

Line Notation: Cc1cc(Nc2nc(Nc3ccccc3S(=O)(=O)C(C)C)c3cc[nH]c3n2)c(OC(C)C)cc1C1CCN(C)CC1
bioavailability [%]: 35

----------
Listed below: microsomal CLint values for each entry.
# Assay Notes: Metabolic stability in mouse liver microsomes assessed as intrinsic clearance
# Assay type: ADME, Microsome
# Settings: read-out: CLH

Line Notation: Cc1cc(Nc2nc(Nc3ccccc3S(=O)(=O)C(C)C)c3cc[nH]c3n2)c(OC(C)C)cc1C1CCNCC1
Unit Symbol: µL/min/mg
microsomal CLint: 15

Line Notation: Cc1cc(Nc2nc(Nc3ccccc3S(=O)(=O)C(C)C)c3cn[nH]c3n2)c(OC(C)C)cc1C1CCN(C)CC1
Unit Symbol: µL/min/mg
microsomal CLint: 37

Line Notation: Cc1cc(Nc2nc(Nc3ccccc3S(=O)(=O)C(C)C)c3c(C)[nH]nc3n2)c(OC(C)C)cc1C1CCN(C)CC1
Unit Symbol: µL/min/mg
microsomal CLint: 13

Line Notation: Cc1cc(Nc2nc(Nc3ccccc3S(=O)(=O)C(C)C)c3cc[nH]c3n2)c(OC(C)C)cc1C1CCN(C)CC1
Unit Symbol: µL/min/mg
microsomal CLint: 62

----------
# Assay Notes: AUC in rat at 10 mg/kg, po
# Type: ADME, organism-based
# Set-up: dose 10 mg/kg
# Settings: in vivo
Parameter AUC: see the listing below.

Line Notation: Cc1cc(Nc2nc(Nc3ccccc3S(=O)(=O)C(C)C)c3c(C)[nH]nc3n2)c(OC(C)C)cc1C1CCN(C)CC1
Unit Symbol: µM·h
AUC: 3.07

Line Notation: Cc1cc(Nc2nc(Nc3ccccc3S(=O)(=O)C(C)C)c3cc[nH]c3n2)c(OC(C)C)cc1C1CCN(C)CC1
Unit Symbol: µM·h
AUC: 7.19

Each recorded value in this set is attributed to ChEMBL document CHEMBL4715698.
